# experimentalTarget: human recombinant beta-2 adrenoreceptors (Homo sapiens, UniProt P07550)
# Sequence (P07550 whole entry): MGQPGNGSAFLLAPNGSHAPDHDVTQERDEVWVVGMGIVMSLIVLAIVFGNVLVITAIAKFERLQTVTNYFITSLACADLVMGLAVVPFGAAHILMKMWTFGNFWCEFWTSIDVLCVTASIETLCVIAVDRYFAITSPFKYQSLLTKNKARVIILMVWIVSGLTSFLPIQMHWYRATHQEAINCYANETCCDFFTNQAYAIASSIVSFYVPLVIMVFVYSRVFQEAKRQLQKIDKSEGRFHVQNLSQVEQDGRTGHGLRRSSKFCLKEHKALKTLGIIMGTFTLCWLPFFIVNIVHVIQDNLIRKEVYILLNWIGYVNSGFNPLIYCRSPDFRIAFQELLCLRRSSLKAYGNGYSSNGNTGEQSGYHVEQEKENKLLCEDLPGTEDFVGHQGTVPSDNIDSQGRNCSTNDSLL
# assaySummary: Beta-2 adrenoceptor binding assay ([3H](−)CGP-12177 displacement)
# runParameters: CHO cells expressing human beta-2 adrenoreceptors, [3H](−)CGP-12177 0.3 nM, 120 min
# Method: Beta-2 Adrenoceptor Binding Assay Test compounds were incubated for 120 min with Chinese hamster oocyte (CHO) cells expressing the human recombinant beta-2 adrenoreceptors. Binding of test compounds to the beta-2 adrenoreceptors was determined by measuring the displacement of the radiolabeled ligand [^3H](−)CGP-12177 (0.3 nM) from the receptor measured by a scintillation counting. […]
Here the recorded IC50 is given for each entry.
parameter: IC50

INSERT INTO assay_data (inputsmiles, measurement) VALUES
  ('COc1cccc(Nc2c(C(N)=O)cnc3c(C)cc(S(=O)(=O)c4cccc(C(=O)NCCCCCCNC[C@H](O)c5ccc(O)c6c5OCC(=O)N6)c4)cc23)c1', '< 100 nM'),
  ('COc1cccc(Nc2c(C(N)=O)cnc3c(C)cc(S(=O)(=O)c4cccc(C(=O)Nc5ccc(C#CCCCNC[C@H](O)c6ccc(O)c7c6OCC(=O)N7)cc5)c4)cc23)c1', '< 100 nM'),
  ('COc1cccc(Nc2c(C(N)=O)cnc3c(C)cc(S(=O)(=O)c4cccc(C(=O)Nc5ccc(C#CCCCNC[C@H](O)c6cc(O)cc7c6OCC(=O)N7)cc5)c4)cc23)c1', '< 100 nM');

====

# experimentalTarget: human recombinant beta-2 adrenoreceptors (Homo sapiens, UniProt P07550)
# assaySummary: Beta-2 adrenoceptor binding assay ([3H](−)CGP-12177 displacement)
# runParameters: CHO cells expressing human beta-2 adrenoreceptors, [3H](−)CGP-12177 0.3 nM, 120 min
# Description: Beta-2 Adrenoceptor Binding Assay Test compounds were incubated for 120 min with Chinese hamster oocyte (CHO) cells expressing the human recombinant beta-2 adrenoreceptors. Binding of test compounds to the beta-2 adrenoreceptors was determined by measuring the displacement of the radiolabeled ligand [^3H](−)CGP-12177 (0.3 nM) from the receptor measured by a scintillation counting. […]
Here the recorded IC50 is given for each entry.
parameter: IC50

INSERT INTO measurements (compound, measurement) VALUES
  ('COc1cccc(Nc2c(C(N)=O)cnc3c(C)cc(S(=O)(=O)c4cccc(C(=O)N5CCN(CCCCCCNC[C@H](O)c6ccc(O)c7[nH]c(=O)ccc67)CC5)c4)cc23)c1', '> 300 nM'),
  ('COc1cccc(Nc2c(C(N)=O)cnc3c(C)cc(S(=O)(=O)c4cccc(C(=O)NCCCCCCNC[C@H](O)c5cc(O)cc6c5OCC(=O)N6)c4)cc23)c1', '< 100 nM'),
  ('COc1cccc(Nc2c(C(N)=O)cnc3c(C)cc(S(=O)(=O)c4cccc(C(=O)N5CCN(CCNC[C@H](O)c6ccc(O)c7[nH]c(=O)ccc67)CC5)c4)cc23)c1', '< 100 nM'),
  ('COc1cccc(Nc2c(C(N)=O)cnc3c(C)cc(S(=O)(=O)c4cccc(C(=O)N5CCN(C(=O)c6cccc(CC(C)NC[C@H](O)c7ccc(O)c8[nH]c(=O)ccc78)c6)CC5)c4)cc23)c1 (stereo partly shown)', '< 100 nM'),
  ('COc1cccc(Nc2c(C(N)=O)cnc3c(C)cc(S(=O)(=O)c4cccc(-c5ccc(CNC[C@H](O)c6ccc(O)c7[nH]c(=O)ccc67)cc5)c4)cc23)c1', '> 300 nM'),
  ('COc1cccc(Nc2c(C(N)=O)cnc3c(C)cc(S(=O)(=O)c4cccc(C(=O)Nc5ccc(C6(CCCCNC[C@H](O)c7ccc(O)c8[nH]c(=O)ccc78)SCCS6)cc5)c4)cc23)c1', '< 100 nM'),
  ('COc1cccc(Nc2c(C(N)=O)cnc3c(C)cc(S(=O)(=O)c4cccc(C(=O)Nc5ccc(C#CCCCNC[C@H](O)c6ccc(O)c7[nH]c(=O)ccc67)cc5C)c4)cc23)c1', '< 100 nM'),
  ('COc1cccc(Nc2c(C(N)=O)cnc3c(C)cc(S(=O)(=O)c4cccc(C(=O)Nc5ccc(C#CCCCNC[C@H](O)c6ccc(O)c7c6OCC(=O)N7)c(C)c5)c4)cc23)c1', '< 100 nM'),
  ('COc1cccc(Nc2c(C(N)=O)cnc3c(C)cc(S(=O)(=O)c4ccc(-c5ccc(CCCNC[C@H](O)c6ccc(O)c7c6OCC(=O)N7)cc5)cc4)cc23)c1', '< 100 nM'),
  ('COc1cccc(Nc2c(C(N)=O)cnc3c(C)cc(S(=O)(=O)c4cccc(C(=O)N5CCC(NC[C@H](O)c6ccc(O)c7[nH]c(=O)ccc67)CC5)c4)cc23)c1', '> 300 nM');

====

# experimentalTarget: human recombinant beta-2 adrenoreceptors (Homo sapiens, UniProt P07550)
# assaySummary: Beta-2 adrenoceptor binding assay ([3H](−)CGP-12177 displacement)
# runParameters: CHO cells expressing human beta-2 adrenoreceptors, [3H](−)CGP-12177 0.3 nM, 120 min
parameter: IC50

INSERT INTO results (compound, measurement) VALUES
  ('COc1cccc(Nc2c(C(N)=O)cnc3c(C)cc(S(=O)(=O)c4cccc(C(=O)Nc5ccc(CCCCOCCCCCCNC[C@H](O)c6ccc(O)c7[nH]c(=O)ccc67)cc5)c4)cc23)c1 [Example 38]', '< 100 nM'),
  ('COc1cccc(Nc2c(C(N)=O)cnc3c(C)cc(S(=O)(=O)c4cccc(C(=O)NCCCCCCNC[C@H](O)c5ccc(O)c(NS(C)(=O)=O)c5)c4)cc23)c1 [Example 43]', '< 100 nM'),
  ('COc1cccc(Nc2c(C(N)=O)cnc3c(C)cc(S(=O)(=O)c4cccc(C(=O)Nc5ccc(-c6ccc(CNC[C@H](O)c7ccc(O)c8[nH]c(=O)ccc78)cc6)cc5)c4)cc23)c1 [Example 20]', '< 100 nM'),
  ('COc1cccc(Nc2c(C(N)=O)cnc3c(C)cc(S(=O)(=O)c4cccc(C(=O)N5CCC(NC[C@H](O)c6ccc(O)c(CO)c6)CC5)c4)cc23)c1 [Example 42]', '< 300 nM'),
  ('COc1cccc(Nc2c(C(N)=O)cnc3c(C)cc(S(=O)(=O)c4cccc(C(=O)Nc5ccc(CCCCCNC[C@H](O)c6ccc(O)c7[nH]c(=O)ccc67)cc5)c4)cc23)c1 [Example 10, 2,2,2-trifluoroacetate]', '< 100 nM'),
  ('COc1cccc(Nc2c(C(N)=O)cnc3c(C)cc(S(=O)(=O)c4cccc(C(=O)Nc5ccc(-c6ccc(CCCCNC[C@H](O)c7ccc(O)c8c7OCC(=O)N8)cc6)cc5)c4)cc23)c1 [Example 21]', '< 100 nM'),
  ('COc1cccc(Nc2c(C(N)=O)cnc3c(C)cc(S(=O)(=O)c4cccc(C(=O)NCCCCCCCCNC[C@H](O)c5ccc(O)c6[nH]c(=O)ccc56)c4)cc23)c1 [Example 1]', '< 100 nM'),
  ('COc1cccc(Nc2c(C(N)=O)cnc3c(C)cc(S(=O)(=O)CCCCCCCCCCCNC[C@H](O)c4cc(O)cc5c4OCC(=O)N5)cc23)c1 [Example 46]', '< 100 nM'),
  ('COc1cccc(Nc2c(C(N)=O)cnc3c(C)cc(S(=O)(=O)c4cccc(C(=O)Nc5ccc(C#CCCCNC[C@H](O)c6ccc(O)c(NC=O)c6)cc5)c4)cc23)c1 [Example 31]', '< 300 nM');

====

Here the recorded EC50 is given for each entry.
# experimentalTarget: human recombinant beta-2 adrenoreceptors (Homo sapiens, UniProt P07550)
# assaySummary: Functional agonism of human recombinant beta-2 adrenoreceptors expressed in CHO cells (cAMP HTRF)
# runParameters: CHO cells expressing human beta-2 adrenoreceptors, cAMP elevation, 30 min
parameter: EC50

INSERT INTO assay_data (molecule, measurement) VALUES
  ('COc1cccc(Nc2c(C(N)=O)cnc3c(C)cc(S(=O)(=O)c4cccc(CN(C)C(=O)c5cccc(CC(C)NC[C@H](O)c6ccc(O)c7[nH]c(=O)ccc67)c5)c4)cc23)c1 (some centres unmarked)', '< 100 nM'),
  ('COc1cccc(Nc2c(C(N)=O)cnc3c(C)cc(S(=O)(=O)c4cccc(C(=O)N(C)CCCCCCNC[C@H](O)c5ccc(O)c(CO)c5)c4)cc23)c1', '> 300 nM'),
  ('COc1cccc(Nc2c(C(N)=O)cnc3c(C)cc(S(=O)(=O)CCCCCCCCCCCNC[C@H](O)c4cc(O)cc5c4OCC(=O)N5)cc23)c1', '< 300 nM'),
  ('COc1cccc(Nc2c(C(N)=O)cnc3c(C)cc(S(=O)(=O)c4ccc(-c5ccc(CCCCCNC[C@H](O)c6ccc(O)c7c6OCC(=O)N7)cc5)cc4)cc23)c1', '< 100 nM'),
  ('COc1cccc(Nc2c(C(N)=O)cnc3c(C)cc(S(=O)(=O)c4ccc(-c5ccc(CNC[C@H](O)c6ccc(O)c7[nH]c(=O)ccc67)cc5)cc4)cc23)c1', '< 100 nM'),
  ('COc1cccc(Nc2c(C(N)=O)cnc3c(C)cc(S(=O)(=O)c4cccc(C(=O)Nc5ccc(CCOCCCCCCNC[C@H](O)c6ccc(O)c7[nH]c(=O)ccc67)cc5)c4)cc23)c1', '< 100 nM'),
  ('COc1cccc(Nc2c(C(N)=O)cnc3c(C)cc(S(=O)(=O)c4cccc(C(=O)NCCCCCCNC[C@H](O)c5ccc(O)c6c5OCC(=O)N6)c4)cc23)c1', '< 100 nM'),
  ('COc1cccc(Nc2c(C(N)=O)cnc3c(C)cc(S(=O)(=O)c4cccc(C(=O)Nc5cccc(-c6ccc(CCCCNC[C@H](O)c7ccc(O)c8c7OCC(=O)N8)cc6)c5)c4)cc23)c1', '< 100 nM'),
  ('COc1cccc(Nc2c(C(N)=O)cnc3c(C)cc(S(=O)(=O)c4cccc(C(=O)NCCCCCCNC[C@H](O)c5ccc(O)c(CO)c5)c4)cc23)c1', '< 100 nM'),
  ('COc1cccc(Nc2c(C(N)=O)cnc3c(C)cc(S(=O)(=O)c4cccc(C(=O)N5CCC(NC[C@H](O)c6ccc(O)c7[nH]c(=O)ccc67)CC5)c4)cc23)c1', '< 100 nM'),
  ('COc1cccc(Nc2c(C(N)=O)cnc3c(C)cc(S(=O)(=O)c4cccc(C(=O)N(C)CCCCCCNC[C@H](O)c5ccc(O)c6[nH]c(=O)ccc56)c4)cc23)c1', '> 300 nM');
